// provenance: patent US9714231B2

Molecular target: human GPR40 (Homo sapiens, UniProt O14842)
Sequence (O14842 whole entry): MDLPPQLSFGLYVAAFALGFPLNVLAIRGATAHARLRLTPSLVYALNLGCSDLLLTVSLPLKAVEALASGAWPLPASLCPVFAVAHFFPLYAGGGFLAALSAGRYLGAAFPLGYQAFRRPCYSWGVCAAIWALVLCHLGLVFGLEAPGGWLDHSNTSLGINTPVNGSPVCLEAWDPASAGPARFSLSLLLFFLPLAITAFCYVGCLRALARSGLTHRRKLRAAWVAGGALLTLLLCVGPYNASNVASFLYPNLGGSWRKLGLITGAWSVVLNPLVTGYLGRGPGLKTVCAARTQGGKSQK
Assay: FDSS-based intracellular calcium assay (Human GRP40 in vitro assay)
Type: cell-based
Set-up: 3xFLAG; expressed in transfected cells
Conditions: cells expressing GPR40, intracellular Ca2+ response, FDSS reader; read-out: hGPR40 EC50
Structures can show the parent of a compound that is named as a salt.
Experimental Readout: EC50 (nM)
Answers are plain numbers, in nM.

Some entries whose results are on file:
COc1cc(N2CCC(Oc3ccc(N4C[C@H](OC)C[C@@H]4CC(=O)O)cc3F)C(C)C2)c(Cl)cn1 (stereo partly drawn) [Example 142, TFA]: 270
COc1ccc(F)c(N2CC[C@H](COc3ccc(N4C[C@H](C(F)(F)F)C[C@@H]4CC(=O)O)cc3)C2)c1 [Example 10, HCl]: 940

Data request: State measured EC50 of the compound COc1ccc(F)c(N2CCC(Oc3ccc(N4C[C@H](C(F)(F)F)C[C@H]4CC(=O)O)cn3)CC2)c1 with human GPR40 (Homo sapiens, UniProt O14842).
Data returned: 1500

----------
Target: human GPR40 (Homo sapiens, UniProt O14842)
Counter-ions that a name gives are not always drawn.
Threshold check on EC50: strictly below 40 nM is Yes; on or above 40 nM is No.

COc1cc(N2CCC(Oc3ccc(N4C[C@H](OC)C[C@@H]4CC(=O)O)cn3)C(C)C2)c(Cl)cn1 (some centres unmarked) [Example 132]: No

Data request: Decide: EC50 of COc1cc(N2CCC(Oc3ccc(N4C[C@H](OC)C[C@@H]4CC(=O)O)c(F)c3)C(C)C2)c(Cl)cn1 (some centres unmarked) [Example 139] strictly below 40 nM?
Data returned: Yes

Data request: Given the entry COc1ccc(C)c(N2CCC(Oc3ccc(N4C[C@H](OC)C[C@@H]4CC(=O)O)cc3)CC2)c1 [Example 57, TFA] , would its reported EC50 be below 40 nM?
Data returned: No

Data request: Determine if COc1cc(N2CCC(Oc3ccc(N4C[C@H](OC)C[C@@H]4CC(=O)O)cc3F)C(C)C2)c(Cl)cn1 (some centres unmarked) [Example 142, TFA] shows EC50 strictly lower than 40 nM.
Data returned: Yes

Data request: Say whether its EC50 is strictly beneath 40 nM. Entry: CCOc1ccc(F)c(N2CCC(Oc3ccc(N4C[C@H](OC)[C@@H](C)[C@@H]4CC(=O)O)cc3)CC2)c1 [Example 121, TFA]
Data returned: No

Data request: Please let me know if COc1cc(N2CCC(Oc3ccc(N4C[C@H](OC)[C@@H](C)[C@@H]4CC(=O)O)cc3F)CC2)c(Cl)cn1 [Example 99] shows EC50 below 40 nM.
Data returned: No

Data request: In the record for COc1cc(N2CCC(Oc3ccc(N4C[C@H](C(F)(F)F)C[C@@H]4CC(=O)O)c(F)c3)C(C)C2)c(Cl)cn1 (some centres unmarked) [Example 138, TFA] , is EC50 less than 40 nM?
Data returned: Yes

Data request: Take the compound COc1ccc(F)c(N2CCC(Oc3ccc(N4CC(C(F)(F)F)C(C)C4CC(=O)O)cc3)CC2)c1 (single isomer, unassigned) [Example 26, Isomer 1, HCl] and say whether its EC50 is less than 40 nM.
Data returned: No

----------
Target: human GPR40 (Homo sapiens)
Experiment: FDSS-based intracellular calcium assay (Human GRP40 in vitro assay)
Type: cell-based
Parameters: 3xFLAG; expressed in transfected cells
Settings: cells expressing GPR40, intracellular Ca2+ response, FDSS reader; read-out: hGPR40 EC50
Counter-ions that a name gives are not always drawn.
Exercise: state measured EC50 for each of the compounds provided.
Answers are plain numbers, in nM.

Batch lookup, EC50 per entry.
1. COc1cc(N2CCC(Oc3ccc(N4C[C@H](OC)[C@@H](C)[C@@H]4CC(=O)O)c(F)c3)CC2)c(Cl)cn1
2. COc1ccc(C)c(N2CCC(Oc3ccc(N4C[C@H](OC)C[C@@H]4CC(=O)O)cc3)C(C)C2)c1 (single isomer, unassigned) [Example 64, Isomer 2]
3. COc1cc(N2CCC(Oc3ccc(N4C[C@H](OC)[C@@H](C)[C@@H]4CC(=O)O)cc3F)C(C)C2)c(Cl)cn1 (stereo partly drawn)
4. COc1cc(N2CCC(Oc3ccc(N4C[C@H](OC)[C@@H](C)[C@@H]4CC(=O)O)cc3)C(C)C2)c(F)cc1F (single isomer, unassigned) [Example 169, Isomer 2]
5. CCOc1ccc(F)c(N2CCC(Oc3ccc(N4C[C@H](Oc5cccc(C(F)(F)F)c5)C[C@@H]4CC(=O)O)cc3)CC2)c1
6. COc1ccc(F)c(N2CCC(N(C)c3ccc(N4C[C@H](OC)C[C@@H]4CC(=O)O)cn3)CC2)c1 [Example 37, HCl]

Data returned:
1: 130; 2: 120; 3: 102; 4: 450; 5: 250; 6: 3200
